Experiment Description: Selectivity index, ratio of CC50 for human MT4 cells to EC50 for HIV1 harboring reverse transcriptase Y188L mutant
Type: toxicity
Experimental Parameters: read-out: Ratio CC50/EC50
Measured selectivity ratio, listed per entry for reference.

- Structure Notation: "Cc1cc(C)c(Oc2cc(Nc3ccc(C#N)cc3)ncc2C(=O)NCc2cn(CCCO)nn2)c(C)c1"
  selectivity ratio: 8
- Structure Notation: "Cc1cc(C)c(Oc2cc(Nc3ccc(C#N)cc3)ncc2C(=O)NCc2cn(CCC#N)nn2)c(C)c1"
  selectivity ratio: 18
- Structure Notation: "Cc1cc(C)c(Oc2cc(Nc3ccc(C#N)cc3)ncc2C(=O)NCc2cn(CC(=O)N3CCOCC3)nn2)c(C)c1"
  selectivity ratio: 25
- Structure Notation: "Cc1cc(C)c(Oc2cc(Nc3ccc(C#N)cc3)ncc2C(=O)NCc2cn(CC(N)=O)nn2)c(C)c1"
  selectivity ratio: 5
- Structure Notation: "Cc1cc(C)c(Oc2cc(Nc3ccc(C#N)cc3)ncc2C(=O)NCc2cn(CC(=O)N3CCCC3)nn2)c(C)c1"
  selectivity ratio: 39
- Structure Notation: "CC(=O)Cn1cc(CNC(=O)c2cnc(Nc3ccc(C#N)cc3)cc2Oc2c(C)cc(C)cc2C)nn1"
  selectivity ratio: 6

Data provenance is ChEMBL document CHEMBL4152200.
